All figures here come from ChEMBL document CHEMBL1140109.

Assay: Inhibition of Escherichia coli BL21(DE3) methionine aminopeptidase in presence of Fe(II) metal ions
IC50 under 10 µM gets true, anything at or over 10 µM gets false.

[
  {
    "smiles-code": "Cc1ccsc1-c1ccc(O)c(O)c1",
    "class": "true"
  },
  {
    "smiles-code": "Nc1nc(-c2ccc(O)c(O)c2)cs1",
    "class": "true"
  },
  {
    "smiles-code": "O=C(NC1CC1)c1ccsc1-c1ccc(O)c(O)c1",
    "class": "true"
  }
]

Please determine if CCCc1ccsc1-c1ccc(O)c(O)c1 is below 10 µM in terms of IC50. false
